System: Escherichia coli NIHJ JC-2 | Read-out: MIC
endpoint.label: MIC (µg/mL)

compound | endpoint.label | experimental.value
CN1COc2c(N3CCCNCC3)c(F)cc3c(=O)c(C(=O)O)cn1c23 | MIC | 0.2
CC(=O)NCC1CCN(c2c(F)cc3c(=O)c(C(=O)O)cn4c3c2OCN4C)C1 (centres unmarked) | MIC | 1.56
CN1COc2c(N3CCN(CCF)CC3)c(F)cc3c(=O)c(C(=O)O)cn1c23 | MIC | 0.2
CN1CCN(c2c(F)cc3c(=O)c(C(=O)O)cn4c3c2OCN4C)CC1 | MIC | 0.025
CN1COc2c(N3CCC(O)CC3)c(F)cc3c(=O)c(C(=O)O)cn1c23 | MIC | 0.39
